targetOrTestSystem: T1, A beta oligomer (synthetic A beta1-40, HCl form, 0.1 mg/ml in PBS, incubated at 37 degrees C for one hour) (UniProt P05067 672-711)
T1 construct: domain: A beta1-40; non-fibrous multimer of the peptide; also called A beta 1-40 oligomer
assayProcedure: SPR (Biacore 3000)
Listing of recorded koff by entry.

binder: IR-127 antibody (antibody, mouse IgG2a, V domains shown, mouse IgG2a) VH: DVQLVESGGGLVQPGGSRKLSCAASGFTFSSFGMHWVRQAPEKGLEWVAYISSGSSTIYYADTVKGRFTISRDNPKNTLFLQMTSLRSEDTAMYYCARKGTYYRYDAFDYWGQGTTLTVSS VL: DVLMTQTPLSLPVSLGDQASISCRSSQSIVHSNGNTYLEWYLQKPGQSPKLLIYKVSNRFSGVPDRFSGSGSGTDFTLKISRVEAEDLGVYYCFQGSHVPPTFGGGTKLEIK
koff (s⁻¹): 0.261

binder: IR-152 antibody (antibody, mouse IgG2b, V domains shown, mouse IgG2b) VH: DVQLVESGGGLVQPGGSRKLSCAASGFTFSSFGMHWVRQAPEKGLEWVAYISSGSSTIYYADTVKGRFTISRDNPKNTLFLQMTSLRSEDTAMYYCARGGHVGAMDYWGQGTSVTVSS VL: DVVMTQTPLSLPVSLGDQASISCRSSQSLVHSNGNTYLHWYLQKPGQSPKLLIYKVSNRFSGVPDRFSGSGSGTDFTLKISRVEAEDLGVYFCSQSTHVPWTFGGGTKLEIK
koff (s⁻¹): 0.00227

binder: IR-135 antibody (antibody, V domains shown, mouse IgG2a) VH: QVQLQQSGAELAKPGASVKMSCKASGYTFTSYWMHWVKQRPGQGLEWIGYINPSTGYTEYNQKFKDKATLTADKSSSTAYMQLSSLTSEDSAVYYCDYYGSSYGYFDVWGAGTTVTVSS VL: DVVMTQTPLSLPVSLGDQASISCRSSQSLVHSNGNTYLHWYLQKPGQSPKLLIYKVSNRFSGVPDRFSGSGSGTDFTLKISRVEAEDLGVFFCSQSTHVPLTFGAGTKLELK
koff (s⁻¹): 0.116
